// each record: one item and its pKi for Mu-type opioid receptor (Rattus norvegicus, UniProt P33535)
Give bare numbers, as −log10 of the molar value.

MOLECULE	SUBJECT OF TEST	pKi
Cc1cc(O)cc(C)c1C[C@H](N)C(=O)N1CCN(C/C=C\Cc2ccccc2)CC1	Mu-type opioid receptor (Rattus norvegicus, UniProt P33535)	9.52
Cc1cc(O)cc(C)c1C[C@H](N)C(=O)N1CCN(C/C=C/Cc2ccccc2)CC1	Mu-type opioid receptor (Rattus norvegicus, UniProt P33535)	9.54
Cc1cc(O)cc(C)c1C[C@H](N)C(=O)N1CCN(CCCCCc2ccccc2)CC1	Mu-type opioid receptor (Rattus norvegicus, UniProt P33535)	9.38

Batch request: pKi per item, same order as input.
1. Cc1cc(O)cc(C)c1C[C@H](N)C(=O)N1CCN(CCCc2ccccc2)CC1
2. Cc1cc(O)cc(C)c1C[C@H](N)C(=O)N1CCC(CCCc2ccccc2)CC1
3. Cc1cc(O)cc(C)c1C[C@H](N)C(=O)N1CCC(Cc2ccccc2)c2ccccc21 (some centres undefined)
4. Cc1cc(O)cc(C)c1C[C@H](N)C(=O)N1CCN(CCC(c2ccccc2)c2ccccc2)CC1
5. Cc1cc(O)cc(C)c1C[C@H](N)C(=O)N1CCC(Cc2ccccc2)CC1
6. Cc1cc(O)cc(C)c1C[C@H](N)C(=O)N1CCN(CCCCc2ccccc2)CC1

Return:
1. 8.42
2. 8.70
3. 7.54
4. 8.96
5. 8.85
6. 9.35
